Values from PubChem BioAssay (Tox21)

Experiment: qHTS assay for small molecule agonists of the antioxidant response element (ARE) signaling pathway (AID 743202); note: potency is the fitted concentration of half-maximal effect
Settings: HepG2 ARE-bla reporter, beta-lactamase FRET, 16 h; series mostly up to 73.3 µM
Records with an inconclusive call do not appear. The source made the active and inactive calls. Calls come from the whole dose curve; as a rule, active = well fitted activation curve with a large enough effect in the signal ratio in the repeat runs (not every such curve was filed as active); inconclusive = weak or mixed curves, or effect the other way; inactive = no such curve, though single readings can be large or run the other way; the % refers to the signal ratio.
readout.type: Potency

Below are worked cases with known answers.
>  <molecule>
Cc1cc(C(C)(C)C)c(O)c(C(C)(C)C)c1

>  <measurement>
inactive

$$$$
>  <molecule>
CCCCOCCOC(=O)c1ccccc1C(=O)OCCOCCCC

>  <measurement>
inactive

$$$$
>  <molecule>
C=CC(=O)OCCCCCCOC(=O)C=C

>  <measurement>
10.9 µM (active)

$$$$
>  <molecule>
COc1ccc(Cc2cnc(N)nc2N)cc1OC

>  <measurement>
inactive

$$$$
>  <molecule>
O=C(OCc1ccccc1)c1ccc(O)cc1

>  <measurement>
inactive

$$$$

### Prompt Request the reported Potency associated with CC(=O)Nc1ccc(C(=O)CCl)cc1
### Response 34.6 µM (active)

### Prompt Consider the molecule Cc1cccc(O)c1C and give its measured Potency.
### Response inactive

### Prompt Data request, read-out Potency, for CCOc1ccc2c(c1)C(C)=CC(C)(C)N2
### Response 61.1 µM (active)
